test system: Staph. aureus 1756; assay: MIC, test tube series dilution test, Staph. aureus 1756; type: cell-based, Staphylococcus aureus; conditions: Staph. aureus 1756; 24 hours, 37°C

COMPOUND | MIC [U/ml]
CC1(C)S[C@@H]2[C@H](NC(=O)[C@H](NC(=O)c3ccc(NC(=O)C4CCCC4)cc3)c3ccccc3)C(=O)N2[C@H]1C(=O)O | 64
CC1(C)S[C@@H]2[C@H](NC(=O)[C@H](NC(=O)c3ccc(NC(=O)C4CCC=CCC4)cc3)c3ccccc3)C(=O)N2[C@H]1C(=O)O | 32
CC1(C)S[C@@H]2[C@H](NC(=O)[C@H](NC(=O)c3ccc(NC(=O)c4ccc(F)cc4)cc3)c3ccccc3)C(=O)N2[C@H]1C(=O)O | 32
